experiment: Plasma drug concentrations and pharmacokinetics after a single intravenous or subcutaneous injection of SIPI-G9 in SD rats; settings: male, SD, rat, plasma, sc, 5 mg/kg, Plasma G-9 concentration, SIPI-G9 5 mg/kg single subcutaneous injection, SD rats, 6 min, individual rats
Peptide text beside a SMILES is read from it. * marks the point of attachment. X1 = CC(=O)N[C@H]1C(*)O[C@H](CO)[C@@H](O)[C@@H]1O

Compound: CC(=O)N[C@H]1C(OC[C@H](NC(=O)[C@@H](NC(=O)[C@H](Cc2ccc(O)cc2)NC(=O)[C@@H](NC(=O)[C@H](CCC(N)=O)NC(=O)CN)[C@@H](C)OC2O[C@H](CO)[C@@H](O)[C@H](O)[C@H]2NC(C)=O)[C@@H](C)O)C(=O)NCC(=O)O)O[C@H](CO)[C@@H](O)[C@@H]1O (stereo partly shown) [SIPI-G9, GQT(Glc)YTS(Glc)G] (H-GQT(X1)YTS(X1)G-OH)
level at 0.1 h (ng/mL): 904

====

assay: Plasma drug concentrations and pharmacokinetics after a single subcutaneous injection of SP peptide or SIPI-D00 peptide in SD rats; assay type: in vivo; conditions: rat, in vivo, sc, 5 mg/kg
Square brackets hold non-standard residues; d marks the D form. Peptide text beside a SMILES is read from it.

Compound: C[C@H](O)[C@@H](NC(=O)[C@@H](Cc1ccc(O)cc1)NC(=O)[C@H](NC(=O)[C@@H](CO)NC(=O)CN)[C@H](C)O)C(=O)N[C@H](CCC(N)=O)C(=O)NCC(=O)O [SIPI-D00, GSTYTQG] (H-G[dS][dT][dY][dT][dQ]G-OH)
MRT last, min: 57.8

====

test: Stability of each 7-peptide compound in rat whole blood; type: in vitro ADME; settings: rat whole blood, 37° C., 1000 ng/mL, incubation time 60 min; read-out: Recovery rate (%) M±SD
Square brackets hold non-standard residues; d marks the D form. Peptide text beside a SMILES is read from it. * marks the point of attachment. X1 = CC(=O)N[C@H]1C(*)O[C@H](CO)[C@@H](O)[C@@H]1O

Molecule: CC(=O)N[C@H]1C(OC[C@H](NC(=O)[C@@H](NC(=O)[C@H](Cc2ccc(O)cc2)NC(=O)[C@@H](NC(=O)[C@H](CCC(N)=O)NC(=O)CN)[C@@H](C)OC2O[C@H](CO)[C@@H](O)[C@H](O)[C@H]2NC(C)=O)[C@@H](C)OC2O[C@H](CO)[C@@H](O)[C@H](O)[C@H]2NC(C)=O)C(=O)NCC(=O)O)O[C@H](CO)[C@@H](O)[C@@H]1O (some centres unmarked) [SIPI-G4, GQT(Glc)YT(Glc)S(Glc)G] (H-GQT(X1)YT(X1)S(X1)G-OH)
Value modifier: =
recovery / %: 77.1

Molecule: CC(=O)N[C@H]1C(O[C@H](C)[C@H](NC(=O)[C@H](CCC(N)=O)NC(=O)CN)C(=O)N[C@@H](Cc2ccc(O)cc2)C(=O)N[C@H](C(=O)N[C@@H](CO)C(=O)NCC(=O)O)[C@@H](C)O)O[C@H](CO)[C@@H](O)[C@@H]1O (some centres unmarked) [SIPI-G6, GQT(Glc)YTSG] (H-GQT(X1)YTSG-OH)
Value modifier: =
recovery / %: 51.1

Molecule: CC(=O)N[C@H]1C(OC[C@H](NC(=O)[C@@H](NC(=O)[C@H](Cc2ccc(O)cc2)NC(=O)[C@@H](NC(=O)[C@H](CCC(N)=O)NC(=O)CN)[C@@H](C)OC2O[C@H](CO)[C@@H](O)[C@H](O)[C@H]2NC(C)=O)[C@@H](C)O)C(=O)NCC(=O)O)O[C@H](CO)[C@@H](O)[C@@H]1O (some centres unmarked) [SIPI-G9, GQT(Glc)YTS(Glc)G] (H-GQT(X1)YTS(X1)G-OH)
Value modifier: >
recovery / %: 90

Molecule: C[C@H](O)[C@@H](NC(=O)[C@@H](Cc1ccc(O)cc1)NC(=O)[C@H](NC(=O)[C@@H](CO)NC(=O)CN)[C@H](C)O)C(=O)N[C@H](CCC(N)=O)C(=O)NCC(=O)O [SIPI-D00, GSTYTQG] (H-G[dS][dT][dY][dT][dQ]G-OH)
Value modifier: =
recovery / %: 100

Molecule: CC(=O)N[C@H]1C(O[C@H](C)[C@H](NC(=O)[C@H](Cc2ccc(O)cc2)NC(=O)[C@@H](NC(=O)[C@H](CCC(N)=O)NC(=O)CN)[C@@H](C)OC2O[C@H](CO)[C@@H](O)[C@H](O)[C@H]2NC(C)=O)C(=O)N[C@@H](CO)C(=O)NCC(=O)O)O[C@H](CO)[C@@H](O)[C@@H]1O (some centres unmarked) [SIPI-G8, GQT(Glc)YT(Glc)SG] (H-GQT(X1)YT(X1)SG-OH)
Value modifier: =
recovery / %: 58.6

====

Experiment: Plasma drug concentrations and pharmacokinetics after a single subcutaneous injection of SP peptide or SIPI-D00 peptide in SD rats
Type: in vivo
Conditions: rat, in vivo, sc, 5 mg/kg
Method: Route: Single back subcutaneous injection; Dosage of the drug: SP peptide and SIPI-D00 peptide were prepared into 3.33 mg/mL solution with normal saline, the dosage of SP peptide by back subcutaneous injection was 10 mg/kg body weight, and the dosage of SIPI-D00 peptide by back subcutaneous injection was 5 mg/kg body weight. […]
Square brackets hold non-standard residues; d marks the D form. Peptide text beside a SMILES is read from it.
Property: AUC(0-t) (ng·h/mL)

Compound: C[C@H](O)[C@@H](NC(=O)[C@@H](Cc1ccc(O)cc1)NC(=O)[C@H](NC(=O)[C@@H](CO)NC(=O)CN)[C@H](C)O)C(=O)N[C@H](CCC(N)=O)C(=O)NCC(=O)O [SIPI-D00, GSTYTQG] (H-G[dS][dT][dY][dT][dQ]G-OH)
Property: AUC(0-t)
Unit annotation: ng·h/mL
Readout value: 8820

====

assay: Stability of each 7-peptide compound in rat whole blood; type: in vitro ADME; settings: rat whole blood, 37° C., 1000 ng/mL, incubation time 60 min; read-out: Recovery rate (%) M±SD
Property: recovery (%)

Substance: H-GQTYTSG-OH [SP, GQTYTSG, reference compound]
Property: recovery
Readout value: 1.67

====

experiment: in vivo; details: rat, in vivo, sc, 5 mg/kg, MRT0-t
Peptide text beside a SMILES is read from it. * marks the point of attachment. X1 = CC(=O)N[C@H]1C(*)O[C@H](CO)[C@@H](O)[C@@H]1O

Molecule: CC(=O)N[C@H]1C(OC[C@H](NC(=O)[C@@H](NC(=O)[C@H](Cc2ccc(O)cc2)NC(=O)[C@@H](NC(=O)[C@H](CCC(N)=O)NC(=O)CN)[C@@H](C)OC2O[C@H](CO)[C@@H](O)[C@H](O)[C@H]2NC(C)=O)[C@@H](C)O)C(=O)NCC(=O)O)O[C@H](CO)[C@@H](O)[C@@H]1O (stereo partly shown) [SIPI-G9, GQT(Glc)YTS(Glc)G] (H-GQT(X1)YTS(X1)G-OH)
Unit annotation: min
MRT last: 34.3

====

assay: Stability of each 7-peptide compound in rat whole blood; assay type: in vitro ADME; conditions: rat whole blood, 37° C., 1000 ng/mL, incubation time 10 min; read-out: Recovery rate (%) M±SD
Square brackets hold non-standard residues; d marks the D form. Peptide text beside a SMILES is read from it. * marks the point of attachment. X1 = CC(=O)N[C@H]1C(*)O[C@H](CO)[C@@H](O)[C@@H]1O
Param label: returns Met when recovery < 80%, returns Not met otherwise, including exact equality.

Molecule: CC(=O)N[C@H]1C(O[C@H](C)[C@H](NC(=O)[C@H](CCC(N)=O)NC(=O)CN)C(=O)N[C@@H](Cc2ccc(O)cc2)C(=O)N[C@H](C(=O)N[C@@H](CO)C(=O)NCC(=O)O)[C@@H](C)O)O[C@H](CO)[C@@H](O)[C@@H]1O (some centres unmarked) [SIPI-G6, GQT(Glc)YTSG] (H-GQT(X1)YTSG-OH)
Group label: Met
--
Molecule: CC(=O)N[C@H]1C(OC[C@H](NC(=O)[C@@H](NC(=O)[C@H](Cc2ccc(O)cc2)NC(=O)[C@@H](NC(=O)[C@H](CCC(N)=O)NC(=O)CN)[C@@H](C)OC2O[C@H](CO)[C@@H](O)[C@H](O)[C@H]2NC(C)=O)[C@@H](C)OC2O[C@H](CO)[C@@H](O)[C@H](O)[C@H]2NC(C)=O)C(=O)NCC(=O)O)O[C@H](CO)[C@@H](O)[C@@H]1O (some centres unmarked) [SIPI-G4, GQT(Glc)YT(Glc)S(Glc)G] (H-GQT(X1)YT(X1)S(X1)G-OH)
Group label: Not met
--
Molecule: CC(=O)N[C@H]1C(OC[C@H](NC(=O)[C@@H](NC(=O)[C@H](Cc2ccc(O)cc2)NC(=O)[C@@H](NC(=O)[C@H](CCC(N)=O)NC(=O)CN)[C@@H](C)OC2O[C@H](CO)[C@@H](O)[C@H](O)[C@H]2NC(C)=O)[C@@H](C)O)C(=O)NCC(=O)O)O[C@H](CO)[C@@H](O)[C@@H]1O (some centres unmarked) [SIPI-G9, GQT(Glc)YTS(Glc)G] (H-GQT(X1)YTS(X1)G-OH)
Group label: Not met
--
Molecule: C[C@H](O)[C@@H](NC(=O)[C@@H](Cc1ccc(O)cc1)NC(=O)[C@H](NC(=O)[C@@H](CO)NC(=O)CN)[C@H](C)O)C(=O)N[C@H](CCC(N)=O)C(=O)NCC(=O)O [SIPI-D00, GSTYTQG] (H-G[dS][dT][dY][dT][dQ]G-OH)
Group label: Not met
